Record set: Ki | D(3) dopamine receptor (Homo sapiens, UniProt P35462) | literature, multiple sources.

{"columns": ["Compound", "Ki / nM"],
 "data": [
  ["COc1cccc2c1CCCC(=O)N2CCCCN1CCN(c2cc(C(F)(F)F)nc(C(C)(C)C)n2)CC1", 10.1],
  ["CCN(CC)CCCC(C)Nc1cnc(C(=O)Nc2ccc(Cl)c3cccnc23)cn1 (stereo unspecified)", 638],
  ["COc1ccc(Br)cc1-c1nc(CN(C)C[C@@H]2CCN(Cc3ccccc3)C2)co1", 1200],
  ["C[C@H](CCN1CCN(c2cc(C(F)(F)F)nc(C(C)(C)C)n2)CC1)CN1C(=O)CCc2ccccc21", 64.9],
  ["CCCN(CCNC(=O)/N=N/c1ccc(F)cc1)C1Cc2ccccc2C1", 1.4],
  ["c1ccc(CCC2CN(Cc3c[nH]c4ccccc34)CCO2)cc1 (stereo unspecified)", 3210]
]}

====

pKi: −log10 of the molar value.
Record set: pKi | D(3) dopamine receptor (Homo sapiens, UniProt P35462) | literature, multiple sources.
Using pKi as the sorting value, the categories are bin 0 = under 6, bin 1 = from 6 up to 7, bin 2 = 7 and over

{"columns": ["Molecule", "Qualitative label"],
 "data": [
  ["CSc1ccc(C2(O)CCN(Cc3c[nH]c4ccccc34)CC2)cc1", "bin 1"],
  ["OC1(c2ccccc2Cl)CCN(Cc2c[nH]c3ccccc23)CC1", "bin 0"],
  ["COc1cccc2c1CC[C@H]1[C@H]2CCCN1CCCCNC(=O)c1ccc(-c2ccccc2)cc1 (single isomer, unassigned)", "bin 2"],
  ["c1ccc(N2CCN(CCCN3CCCc4ccccc43)CC2)cc1", "bin 1"],
  ["C=CCN1C[C@H](OCCCNC(=O)c2ccc(-c3ccsc3)cc2)C[C@H]1CNC(=O)c1cc(CCCF)cc(OC)c1OC", "bin 2"],
  ["CCCN1CCO[C@@H]2c3cc4c(cc3CC[C@H]21)CN(C)C4=O", "bin 0"],
  ["CN1CCc2cccc3c2C1Cc1ccc2nc(N)sc2c1-3 (racemic)", "bin 1"],
  ["OC1(c2ccc(Cl)cc2)CCN(Cc2n[nH]c3ccccc23)CC1", "bin 1"],
  ["CCCN(CCCCNC(=O)c1ccc(-c2ccccc2)cc1)C1CCc2n[nH]cc2C1 (centres undefined)", "bin 2"],
  ["CCCN1CCc2cccc3c2[C@H]1Cc1cccc(OCCCCN2CCN(c4ccccc4OC)CC2)c1-3", "bin 2"]
]}

====

Record set: Ki | D(3) dopamine receptor (Homo sapiens) | literature, multiple sources.

{"columns": ["Molecule", "Reported relation", "Ki (nM)"],
 "data": [
  ["COc1ccccc1N1CCN(CCCCc2cn(-c3ccccc3)nn2)CC1", "=", 5.42],
  ["O=C(NCCCCN1CCc2ccc(OS(=O)(=O)C(F)(F)F)cc2C1)c1cccc(-c2ccccc2)c1", "=", 126],
  ["Oc1ccc2c(c1)C1OCCN(CCc3ccccc3)C1CC2 (racemic)", "=", 1570],
  ["COc1ccccc1N1CCN(CCCCc2cc(-c3ccc(F)cc3)no2)CC1", "=", 23],
  ["COc1ccc(-c2cn(CCCCN3CCN(c4ccccc4OC)CC3)nn2)cc1", "=", 40.1],
  ["O=C(NCCCCN1CCN(c2ccccc2)CC1)[C@@H]1CCc2ccccc2N1", "=", 45],
  ["CN1CCCCC1CCN1c2ccccc2Sc2ccc([S+](C)[O-])cc21 (single isomer, unassigned; 3)", "=", 95],
  ["COc1ccccc1N1CCN(CNC(=O)c2ccccc2)CC1", "=", 2470],
  ["CCCN1CCc2cccc3c2[C@@H]1Cc1cccc(OCc2cn(CCCCN4CCN(c5ccccc5OC)CC4)nn2)c1-3", "=", 8],
  ["COc1ccccc1N1CCN(CCCNC(=O)NN(Cc2ccccc2)c2ccc(Br)cc2)CC1", "=", 130],
  ["COc1ccccc1N1CCN(CCCCNC(=O)[C@H]2CC[C@@H](c3ccccc3)CC2)CC1", "=", 20.6],
  ["CCN(CC)C(=O)NCCCCN1CCN(c2cc(C(F)(F)F)nc(C(C)(C)C)n2)CC1", "=", 0.9],
  ["COc1ccccc1N1CCN(CCCCNS(=O)(=O)c2ccc(F)cc2)CC1", "=", 210],
  ["CCCN1CCO[C@@H]2c3cc4c(cc3CC[C@H]21)CCOC4=O", "=", 120],
  ["N#CC(C#N)=Cc1cc(CN2CCN(c3ccccc3)CC2)c[nH]1", "=", 2350],
  ["c1ccc(CNC[C@H]2CCc3ccc4[nH]ccc4c3O2)cc1", "=", 34],
  ["C[C@H]1CN(C(=O)c2ccc(-c3ccccc3C(F)(F)F)cc2)CCN1C(=O)c1ccc2cc[nH]c2c1", ">", 10000],
  ["C[C@@H]1CN(CCCn2c3ccccc3c3cc(N)ccc32)C[C@H](C)N1", ">", 8000]
]}
